The following compounds are listed with their measured IC50 values.
Target: c-kit mutant D816V (Homo sapiens, UniProt P10721, D816V/DEL694-753)
Construct: residues 551-934, kinase insertion domain residues 694-753 deleted; 6x-histidine (N); made in house; host or cells: E. coli Arctic Express (DE3) RIL (Stratagene)
Sequence (P10721 with tags, fused parts or gaps DEL694-753/D816V): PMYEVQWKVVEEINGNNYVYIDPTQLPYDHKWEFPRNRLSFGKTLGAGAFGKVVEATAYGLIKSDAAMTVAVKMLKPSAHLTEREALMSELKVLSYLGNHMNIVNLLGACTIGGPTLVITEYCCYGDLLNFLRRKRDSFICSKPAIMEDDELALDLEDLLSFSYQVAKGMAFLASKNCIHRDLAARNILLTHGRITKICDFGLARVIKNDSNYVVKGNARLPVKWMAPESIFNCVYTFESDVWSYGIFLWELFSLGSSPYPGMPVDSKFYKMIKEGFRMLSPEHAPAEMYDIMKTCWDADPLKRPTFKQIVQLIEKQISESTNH
Assay: c-Kit mutant D816V biochemical assay, AlphaScreen
Settings: c-kit D816V biochemical inhibitory activity; read-out: Biochemical activity (IC50 μM) Kit D816V

Would you please look over these solved cases?
Cc1cc2c(N3CCN(C(=O)N[C@@H](C)c4cccc(Cl)c4)C(C)(C)C3)ncnc2[nH]1 : 0.0001 to 1 µM
O=C(Nc1ccccc1Cl)N1CCN(c2ncnc3[nH]c(-c4ccccc4)cc23)CC1 : 1 to 10 µM
COc1cc(NC(=O)N2CCN(c3ncnc4[nH]c(-c5cccnc5)cc34)CC2)cc(OC)c1 : 0.0001 to 1 µM
O=C(NCc1ccc(F)cc1)NC1CCN(c2ncnc3[nH]ccc23)CC1 : 10 to 200 µM
CCCNC(=O)N1CCN(c2ncnc3[nH]c(-c4cccnc4)cc23)CC1 : 1 to 10 µM

Query: System c-kit mutant D816V (Homo sapiens, UniProt P10721, D816V/DEL694-753). Read-out IC50. Item COc1cc2ncnc(-c3ccc(NS(=O)(=O)N4CCCC4)c(F)c3)c2cc1OC . Report value.
Reply: 1 to 10 µM

Query: System c-kit mutant D816V (Homo sapiens, UniProt P10721, D816V/DEL694-753). Read-out IC50. Item CN(C)c1ncc(-c2cc3c(N4CCC(NS(=O)(=O)c5ccc(OC(F)(F)F)cc5)CC4)ncnc3[nH]2)s1 . Report value.
Reply: 1 to 10 µM

Query: System c-kit mutant D816V (Homo sapiens, UniProt P10721, D816V/DEL694-753). Read-out IC50. Item Cc1nn(C)cc1-c1cc2c(N3CCN(C(=O)N[C@@H](C)c4ccc(Cl)cc4)C(C)(C)C3)ncnc2[nH]1 . Report value.
Reply: 0.0001 to 1 µM

----------
The following molecules are listed with their measured IC50 values.
Target: c-kit mutant D816V (Homo sapiens, UniProt P10721, D816V/DEL694-753)
Construct: residues 551-934, kinase insertion domain residues 694-753 deleted; 6x-histidine (N); made in house; host or cells: E. coli Arctic Express (DE3) RIL (Stratagene)
Experiment: c-Kit mutant D816V biochemical assay, AlphaScreen
Details: c-kit D816V biochemical inhibitory activity; read-out: Biochemical activity (IC50 μM) Kit D816V

Would you please look over these solved cases?
Cc1cc2c(-c3ccc(NS(=O)(=O)c4cc(F)cc(F)c4)cc3F)ncnc2[nH]1 : 10 to 200 µM
COc1cc2c(-c3ccc(NS(=O)(=O)N4CCCC4)cc3F)ncnc2cc1OCCCN1CCCCC1 : 0.0001 to 1 µM
O=S(=O)(Nc1ccc(-c2ncnc3[nH]c(-c4cc(F)ccc4F)cc23)c(F)c1)c1ccc(Cl)cc1 : 0.0001 to 1 µM
Cn1cc(-c2cc3c(N4CCC(NS(=O)(=O)c5ccc(F)cc5)CC4)ncnc3[nH]2)cn1 : 1 to 10 µM
CC1(C)CN(c2ncnc3cc(-c4ccc(F)cc4)sc23)CCN1 : 10 to 200 µM

Query: Recall and state the measured IC50 for Cn1cc(-c2cc3ncnc(-c4ccc(N)nc4)c3s2)cn1 .
Reply: 1 to 10 µM

Query: Recall and state the measured IC50 for COc1cc2ncnc(-c3ccc(NS(=O)(=O)c4ccc(Cl)cc4)cc3F)c2cc1OC .
Reply: 0.0001 to 1 µM

Query: Recall and state the measured IC50 for CCOc1ccc(NC(=O)N2CCN(c3ncnc4[nH]c(-c5cccnc5)cc34)CC2)cc1 .
Reply: 1 to 10 µM

Query: Recall and state the measured IC50 for CCCn1cc(S(=O)(=O)NC2CCN(c3ncnc4[nH]c(-c5cnn(C)c5)cc34)CC2)cn1 .
Reply: 1 to 10 µM

Query: Recall and state the measured IC50 for Cc1ccc(-c2cc3c(N4CCN(C(=O)NCc5ccc(F)cc5)CC4)ncnc3[nH]2)cn1 .
Reply: 0.0001 to 1 µM

Query: Recall and state the measured IC50 for COc1cc(-c2cc3c(N4CCN(C(=O)NCc5ccc(F)cc5)CC4)ncnc3[nH]2)ccn1 .
Reply: 1 to 10 µM

Query: Recall and state the measured IC50 for COc1cc([C@H](C)NC(=O)N2CCN(c3ncnc4[nH]c(-c5ccc(F)cc5)cc34)C[C@H]2C)ccc1Cl .
Reply: 0.0001 to 1 µM

Query: Recall and state the measured IC50 for C[C@H](NC(=O)N1CCN(c2ncnc3[nH]c(-c4ccc(C#N)cc4)cc23)CC1(C)C)c1ccc(F)cc1 .
Reply: 1 to 10 µM

Query: Recall and state the measured IC50 for NC(=O)c1cccc(-c2cc3c(N4CCN(C(=O)NCc5ccc(F)cc5)CC4)ncnc3[nH]2)c1 .
Reply: 0.0001 to 1 µM

Query: Recall and state the measured IC50 for Cc1ccc(S(=O)(=O)Nc2ccc(-c3ncnc4[nH]c(C)cc34)cc2)cn1 .
Reply: 0.0001 to 1 µM

Query: Recall and state the measured IC50 for COc1cccc([C@H](C)NC(=O)N2CCN(c3ncnc4[nH]c(-c5ccnc(OC)c5)cc34)CC2(C)C)c1 .
Reply: 0.0001 to 1 µM

Query: Recall and state the measured IC50 for CCS(=O)(=O)Nc1ccc(-c2ncnc3[nH]c(-c4ccc(F)cc4)cc23)cc1 .
Reply: 0.0001 to 1 µM

Query: Recall and state the measured IC50 for COc1cc(CNC(=O)N2CCN(c3ncnc4[nH]c(-c5cccnc5)cc34)CC2)ccn1 .
Reply: 1 to 10 µM

Query: Recall and state the measured IC50 for NS(=O)(=O)c1ccc(-c2ncnc3[nH]c(-c4ccc(F)cc4)cc23)cc1 .
Reply: 0.0001 to 1 µM

----------
Biological target: c-kit mutant D816V (Homo sapiens, UniProt P10721, D816V/DEL694-753)
Construct: residues 551-934, kinase insertion domain residues 694-753 deleted; 6x-histidine (N); made in house; host or cells: E. coli Arctic Express (DE3) RIL (Stratagene)
Assay: c-Kit mutant D816V biochemical assay, AlphaScreen
Conditions: c-kit D816V biochemical inhibitory activity; read-out: Biochemical activity (IC50 μM) Kit D816V
Measurement label: IC50

Query: Recall and state the measured IC50 for O=S(=O)(NCc1ccccc1)c1ccc(-c2ncnc3cc(-c4ccc(F)cc4)sc23)cc1 [P-0635] .
Reply: 0.0001 to 1 µM

Query: Recall and state the measured IC50 for Cc1nn(C)c(C)c1-c1cc2ncnc(N3CCN(C(=O)NCc4ccc(F)cc4)CC3)c2s1 [P-0618] .
Reply: 1 to 10 µM

Query: Recall and state the measured IC50 for COc1cc2ncnc(-c3ccc(S(=O)(=O)Nc4ccc(F)cc4)cc3F)c2cc1OCCCN1CCOCC1 [P-0248] .
Reply: 1 to 10 µM

Query: Recall and state the measured IC50 for COc1ccc(S(=O)(=O)Nc2ccc(-c3ncnc4cc(OCCCN5CCCCC5)c(OC)cc34)c(F)c2)cc1 [P-0255] .
Reply: 0.0001 to 1 µM

Query: Recall and state the measured IC50 for Cc1ccc(S(=O)(=O)NC2CCN(c3ncnc4[nH]c(C)cc34)CC2)cc1 [P-0675] .
Reply: 1 to 10 µM

Query: Recall and state the measured IC50 for CNC(=O)c1cccc(-c2cc3c(N4CCN(C(=O)NCc5ccc(F)cc5)CC4)ncnc3[nH]2)c1 [P-0081] .
Reply: 0.0001 to 1 µM

Query: Recall and state the measured IC50 for COc1ncc(CNC(=O)N2CCN(c3ncnc4[nH]c(-c5ccc(F)cc5)cc34)CC2)cc1F [P-0087] .
Reply: 0.0001 to 1 µM

Query: Recall and state the measured IC50 for CC1(C)C=C(c2cc3c(-c4ccc(NS(=O)(=O)c5ccc(F)cc5)cc4)ncnc3[nH]2)CC(C)(C)N1 [P-0295] .
Reply: 0.0001 to 1 µM

----------
Target: c-kit kinase (Homo sapiens, UniProt P10721)
Construct: The c-kit (or kinase domain thereof) is an active kinase in AlphaScreen; poly-Histidine tag (in-house protein only) (cleaved yes); host or cells: E. coli BL21(DE3)RIL, co-expressed with PTP1B
Sequence (P10721 26-976): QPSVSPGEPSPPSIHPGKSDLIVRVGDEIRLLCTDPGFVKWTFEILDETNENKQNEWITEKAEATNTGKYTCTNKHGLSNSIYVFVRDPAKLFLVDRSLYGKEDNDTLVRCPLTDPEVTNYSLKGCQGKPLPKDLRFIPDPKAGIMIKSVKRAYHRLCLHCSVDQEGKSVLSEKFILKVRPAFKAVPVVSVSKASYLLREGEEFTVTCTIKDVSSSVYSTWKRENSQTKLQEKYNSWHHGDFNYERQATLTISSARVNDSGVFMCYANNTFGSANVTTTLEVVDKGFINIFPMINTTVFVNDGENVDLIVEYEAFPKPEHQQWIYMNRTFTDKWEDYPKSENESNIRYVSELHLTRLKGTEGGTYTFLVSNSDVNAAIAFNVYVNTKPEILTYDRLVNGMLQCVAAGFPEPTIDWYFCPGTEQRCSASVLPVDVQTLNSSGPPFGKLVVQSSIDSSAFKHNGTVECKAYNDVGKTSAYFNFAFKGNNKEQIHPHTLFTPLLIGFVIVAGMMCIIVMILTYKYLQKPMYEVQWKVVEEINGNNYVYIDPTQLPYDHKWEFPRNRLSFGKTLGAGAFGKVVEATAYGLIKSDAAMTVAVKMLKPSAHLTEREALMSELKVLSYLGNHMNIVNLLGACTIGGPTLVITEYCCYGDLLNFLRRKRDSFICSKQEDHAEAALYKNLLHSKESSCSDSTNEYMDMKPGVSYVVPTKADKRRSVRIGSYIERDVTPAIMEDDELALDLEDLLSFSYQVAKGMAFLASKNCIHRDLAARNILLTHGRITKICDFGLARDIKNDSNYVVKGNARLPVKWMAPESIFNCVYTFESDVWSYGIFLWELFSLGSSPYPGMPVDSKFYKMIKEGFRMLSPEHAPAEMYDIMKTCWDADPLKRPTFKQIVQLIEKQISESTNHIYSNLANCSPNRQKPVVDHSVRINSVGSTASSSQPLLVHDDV
Assay: c-Kit biochemical assay, AlphaScreen, 10 μM ATP
Details: c-kit biochemical inhibitory activity; read-out: Biochemical activity (IC50 μM) Kit
Measurement label: IC50

Query: System c-kit kinase (Homo sapiens, UniProt P10721). Read-out IC50. Item COc1ccc(S(=O)(=O)Nc2ccc(-c3ncnc4[nH]c(C)cc34)c(F)c2)cc1 [P-0363] . Report value.
Reply: 1 to 10 µM

Query: System c-kit kinase (Homo sapiens, UniProt P10721). Read-out IC50. Item COc1cccc([C@H](C)NC(=O)N2C3CCC2CN(c2ncnc4cc(-c5ccc(F)cc5)sc24)C3)c1 [P-0567] . Report value.
Reply: 10 to 200 µM

Query: System c-kit kinase (Homo sapiens, UniProt P10721). Read-out IC50. Item C[C@H](NC(=O)N1CCN(c2ncnc3cc(N4CCOCC4)sc23)CC1)c1ccc(F)cc1 [P-0589] . Report value.
Reply: 10 to 200 µM

Query: System c-kit kinase (Homo sapiens, UniProt P10721). Read-out IC50. Item C[C@@H]1CN(c2ncnc3[nH]c(-c4ccncc4)cc23)CCN1C(=O)Nc1ccc(F)c(Cl)c1 [P-0062] . Report value.
Reply: 1 to 10 µM

Query: System c-kit kinase (Homo sapiens, UniProt P10721). Read-out IC50. Item Cc1nn(C)cc1-c1cc2ncnc(C3CCN(C(=O)NCc4ccc(F)cc4)CC3)c2s1 [P-0604] . Report value.
Reply: 1 to 10 µM

Query: System c-kit kinase (Homo sapiens, UniProt P10721). Read-out IC50. Item Cc1ccc2sc(S(=O)(=O)Nc3ccc(-c4ncnc5[nH]c(C)cc45)cc3)cc2c1 [P-0308] . Report value.
Reply: 10 to 200 µM

Query: System c-kit kinase (Homo sapiens, UniProt P10721). Read-out IC50. Item Cc1cc2c(-c3ccc(NS(=O)(=O)c4cccc(Cl)c4F)cc3F)ncnc2[nH]1 [P-0364] . Report value.
Reply: 10 to 200 µM

Query: System c-kit kinase (Homo sapiens, UniProt P10721). Read-out IC50. Item CCCNC(=O)N1CCN(c2ncnc3[nH]ccc23)CC1 [P-0203] . Report value.
Reply: 10 to 200 µM

Query: System c-kit kinase (Homo sapiens, UniProt P10721). Read-out IC50. Item N#CC1(c2ccc(-c3cc4c(N5CCN(C(=O)Nc6ccc(OC(F)(F)F)cc6)CC5)ncnc4[nH]3)cc2)CC1 [P-0113] . Report value.
Reply: 0.0001 to 1 µM

Query: System c-kit kinase (Homo sapiens, UniProt P10721). Read-out IC50. Item O=S(=O)(Nc1ccc(-c2ncnc3[nH]c(-c4ccc(F)cc4)cc23)cc1)C1CC1 [P-0420] . Report value.
Reply: 10 to 200 µM

Query: System c-kit kinase (Homo sapiens, UniProt P10721). Read-out IC50. Item [2H]C([2H])([2H])S(=O)(=O)Nc1ccc(-c2ncnc3[nH]c(-c4ccc(F)cc4)cc23)cc1F [P-0367] . Report value.
Reply: 10 to 200 µM

Data credit: patent US10227357B2
